Reference source: PubChem BioAssay

# Tested on: Lefty1
# Experiment Notes: Lefty1 protein binding to printed compounds – biochemical, small-molecule microarray, 635/667 nm fluorescence, primary screen (AID 1139)
# Condition Info: fluorescence 635/667, higher = more signal
Measured Quantity: composite z-score

{"Smiles Structure": "NC(=O)NCC#Cc1ccc2c(c1)[C@]1(C(=O)N2)[C@H](c2ccc(OCCO)cc2)N2[C@H](c3ccccc3)[C@H](c3ccccc3)OC(=O)[C@H]2[C@@H]1C(=O)O", "Measured Quantity": "composite z-score", "Reported Result": -0.601}
{"Smiles Structure": "O=C(NCCN1CCOCC1)[C@@H]1c2ccccc2C(=O)N(Cc2ccccc2C(F)(F)F)[C@H]1c1ccc(CO)cc1", "Measured Quantity": "composite z-score", "Reported Result": -1.24}
{"Smiles Structure": "[N-]=[N+]=Nc1ccccc1C[C@]1(C(=O)N2CCOCC2)N=C(c2ccc(OCCCO)cc2)O[C@H]1c1ccccc1N=[N+]=[N-]", "Measured Quantity": "composite z-score", "Reported Result": 1.41}

###

z-score values for the compounds below.
# Experiment Notes: plasmodial surface anion channel blockers, osmotic lysis – cell-based, P. falciparum Indochina, OD700, 18 h, primary screen (AID 1157)
# Condition Info: P. falciparum Indochina infected erythrocytes, osmotic lysis OD700, 18 h; higher = more signal, called active from +8 up or from −8 down

{"Compound": "Cc1ccc(S[C@]2(C(=O)NC(C)C)CC(=O)N(C3CCCCC3)[C@@H]2c2ccc(CO)cc2I)cc1", "z-score": 0.916}
{"Compound": "C=CCC(OC(C)=O)[C@@H]1[C@@H](N(Cc2ccc(-c3ccccc3)cc2)C(=O)c2cccc3ccccc23)c2cc(OCCCO)ccc2N1C(=O)Cc1ccc(OC)cc1 (some centres undefined)", "z-score": 0.211}
{"Compound": "CN1C(=O)C2C(C1=O)C1C=C(CCCO)C2C(C2CC2)N1Cc1cccc(OC(F)(F)F)c1 (centres undefined)", "z-score": 0.402}
{"Compound": "O=C1O[C@@H](c2ccccc2)[C@@H](c2ccccc2)N2[C@@H](c3ccc(OCCO)cc3)[C@]3(C(=O)Nc4ccc(C#CC5(O)CCCCCC5)cc43)[C@@H](C(=O)Nc3nc4ccccc4s3)[C@H]12", "z-score": 1.96}
